Just for reference, patent US20180030151A1 is where these values come from.

# Lookup of reported FXa assay OD, 2.5 nM Ab, 10 nM TFPI keyed by entry
# target.or.system: recombinant human TFPI (tissue factor pathway inhibitor) (human, UniProt P10646 29-304)
# test.summary: cell-based or functional assay
readout.name: FXa assay OD, 2.5 nM Ab, 10 nM TFPI

{"binder": "clone 13 (antibody, V domains shown) VH: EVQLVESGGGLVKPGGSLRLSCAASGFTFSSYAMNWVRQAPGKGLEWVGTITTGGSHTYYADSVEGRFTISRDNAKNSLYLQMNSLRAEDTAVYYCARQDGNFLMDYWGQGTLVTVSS VL: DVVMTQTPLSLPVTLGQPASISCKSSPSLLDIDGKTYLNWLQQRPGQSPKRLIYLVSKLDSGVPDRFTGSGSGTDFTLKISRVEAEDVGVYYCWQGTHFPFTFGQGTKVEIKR", "readout.name": "FXa assay OD, 2.5 nM Ab, 10 nM TFPI", "measured": 0.0645}
{"binder": "clone 8 (antibody, V domains shown) VH: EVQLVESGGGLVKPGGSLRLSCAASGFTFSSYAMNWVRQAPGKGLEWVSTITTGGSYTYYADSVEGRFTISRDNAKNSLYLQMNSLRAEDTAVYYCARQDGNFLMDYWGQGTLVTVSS VL: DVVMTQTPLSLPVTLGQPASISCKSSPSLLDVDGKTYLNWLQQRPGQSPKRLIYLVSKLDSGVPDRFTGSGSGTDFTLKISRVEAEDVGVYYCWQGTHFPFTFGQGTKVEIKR", "readout.name": "FXa assay OD, 2.5 nM Ab, 10 nM TFPI", "measured": 0.0615}
{"binder": "clone 2 (antibody, V domains shown) VH: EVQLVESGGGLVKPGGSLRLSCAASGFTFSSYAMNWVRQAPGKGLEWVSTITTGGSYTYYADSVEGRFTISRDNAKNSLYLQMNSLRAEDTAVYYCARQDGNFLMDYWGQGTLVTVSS VL: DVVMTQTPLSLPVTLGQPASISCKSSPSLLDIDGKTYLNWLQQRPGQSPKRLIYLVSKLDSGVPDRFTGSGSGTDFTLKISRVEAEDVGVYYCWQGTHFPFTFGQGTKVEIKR", "readout.name": "FXa assay OD, 2.5 nM Ab, 10 nM TFPI", "measured": 0.0605}
{"binder": "clone 1202 (antibody, V domains shown, scFv on yeast at selection; human IgG4/kappa IgG as purified; also called No. 1202 antibody) VH: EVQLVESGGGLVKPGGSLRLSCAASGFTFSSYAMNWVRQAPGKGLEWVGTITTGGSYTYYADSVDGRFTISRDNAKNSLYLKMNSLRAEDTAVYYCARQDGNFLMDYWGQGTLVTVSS VL: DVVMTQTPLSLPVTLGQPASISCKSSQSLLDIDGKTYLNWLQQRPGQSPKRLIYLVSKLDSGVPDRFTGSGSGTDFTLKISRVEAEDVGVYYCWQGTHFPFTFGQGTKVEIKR", "readout.name": "FXa assay OD, 2.5 nM Ab, 10 nM TFPI", "measured": 0.0605}
{"binder": "clone 1023 (antibody, V domains shown, scFv on yeast at selection; human IgG4/kappa IgG as purified) VH: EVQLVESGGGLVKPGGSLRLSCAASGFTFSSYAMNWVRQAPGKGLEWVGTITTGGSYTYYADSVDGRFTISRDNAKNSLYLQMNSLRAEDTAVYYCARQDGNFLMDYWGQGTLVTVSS VL: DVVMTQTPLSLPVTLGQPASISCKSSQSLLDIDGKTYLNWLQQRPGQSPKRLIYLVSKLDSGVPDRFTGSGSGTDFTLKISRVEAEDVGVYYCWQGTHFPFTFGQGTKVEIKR", "readout.name": "FXa assay OD, 2.5 nM Ab, 10 nM TFPI", "measured": 0.06}
{"binder": "clone 11 (antibody, V domains shown) VH: EVQLVESGGGLVKPGGSLRLSCAASGFTFSSYAMNWVRQAPGKGLEWVGTITTGGSYTYYADSVEGRFTISRDNAKNSLYLQMNSLRAEDTAVYYCARQDGNFLMDYWGQGTLVTVSS VL: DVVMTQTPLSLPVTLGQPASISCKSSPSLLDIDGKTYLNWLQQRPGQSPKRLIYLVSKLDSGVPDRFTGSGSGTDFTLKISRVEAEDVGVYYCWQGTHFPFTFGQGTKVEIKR", "readout.name": "FXa assay OD, 2.5 nM Ab, 10 nM TFPI", "measured": 0.0575}
{"binder": "clone 12 (antibody, V domains shown, human IgG4/kappa IgG as purified; also called No. 12 antibody) VH: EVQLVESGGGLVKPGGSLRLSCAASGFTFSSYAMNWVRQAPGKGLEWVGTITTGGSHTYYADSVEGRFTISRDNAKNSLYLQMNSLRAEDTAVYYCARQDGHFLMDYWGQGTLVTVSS VL: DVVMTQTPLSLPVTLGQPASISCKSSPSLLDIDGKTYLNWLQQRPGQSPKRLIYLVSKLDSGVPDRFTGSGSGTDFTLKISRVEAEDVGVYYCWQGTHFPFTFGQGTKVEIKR", "readout.name": "FXa assay OD, 2.5 nM Ab, 10 nM TFPI", "measured": 0.0615}
